# TGT: ZAP-70 (Homo sapiens)
# Construct: endogenous in cells
# ASSAY_INFO: ZAP-70 kinobeads assay
# RUN_CONDITIONS: cell lysate, dot blot detection
Below, each entry is listed with its recorded IC50.

Q. For the compound COc1cc(Nc2ncc(F)c(Nc3ccccc3NS(=O)(=O)NCC3CC3)n2)cc(OC)c1OC [Example 12] , what IC50 is on record?
A. < 50 µM

Q. For the compound NS(=O)(=O)Nc1ccccc1Nc1nc(Nc2ccc3[nH]nnc3c2)ncc1Br [Example 27] , what IC50 is on record?
A. < 1 µM

Q. For the compound COCCNS(=O)(=O)Nc1ccccc1Nc1nc(Nc2cc(OC)c(OC)c(OC)c2)ncc1F [Example 15] , what IC50 is on record?
A. < 50 µM

----------
Below, each entry is listed with its recorded pIC50.
# TGT: ZAP-70 (Homo sapiens, UniProt P43403)
# Construct: endogenous in cells
# Sequence (P43403 whole entry): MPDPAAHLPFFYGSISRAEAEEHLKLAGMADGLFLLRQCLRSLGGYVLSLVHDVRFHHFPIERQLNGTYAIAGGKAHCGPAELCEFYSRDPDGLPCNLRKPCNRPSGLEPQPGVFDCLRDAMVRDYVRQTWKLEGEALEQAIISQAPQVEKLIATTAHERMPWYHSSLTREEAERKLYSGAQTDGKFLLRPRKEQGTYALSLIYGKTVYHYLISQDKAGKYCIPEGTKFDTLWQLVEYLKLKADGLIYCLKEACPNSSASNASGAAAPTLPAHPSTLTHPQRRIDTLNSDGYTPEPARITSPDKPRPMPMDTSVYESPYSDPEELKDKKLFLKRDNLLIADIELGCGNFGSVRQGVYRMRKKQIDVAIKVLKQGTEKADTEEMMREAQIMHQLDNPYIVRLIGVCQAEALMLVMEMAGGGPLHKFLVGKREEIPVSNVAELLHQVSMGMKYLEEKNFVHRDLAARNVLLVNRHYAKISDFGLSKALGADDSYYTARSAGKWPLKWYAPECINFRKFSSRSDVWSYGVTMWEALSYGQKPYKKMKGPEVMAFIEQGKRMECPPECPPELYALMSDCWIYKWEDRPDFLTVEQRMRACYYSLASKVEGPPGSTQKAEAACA
# ASSAY_INFO: ZAP-70 kinobeads assay
# RUN_CONDITIONS: cell lysate, dot blot detection
pIC50: −log10 of the molar value.

COc1ccc(Nc2ncc(Br)c(Nc3ccccc3NS(N)(=O)=O)n2)cc1; > 6.00
CCOc1cccc(Nc2nc(Nc3cc(OC)c(OC)c(OC)c3)ncc2F)c1NS(N)(=O)=O; > 7.00
COc1cc(Nc2ncc(F)c(Nc3ccccc3NS(N)(=O)=O)n2)cc(OC)c1OC; > 7.00
COc1cc(Nc2ncc(F)c(Nc3cc(F)ccc3NS(N)(=O)=O)n2)cc(OC)c1OC; > 6.00

Q. For the molecule COc1cc(Nc2ncc(F)c(Nc3ccc(N4CCOCC4)cc3NS(N)(=O)=O)n2)cc(OC)c1OC , what pIC50 is on record?
A. > 6.00

Q. For the molecule COc1cc(Nc2ncc(C)c(Nc3ccccc3NS(N)(=O)=O)n2)cc(OC)c1OC , what pIC50 is on record?
A. > 6.00

Q. For the molecule COc1cc(Nc2ncc(F)c(Nc3cccc(NS(N)(=O)=O)c3)n2)cc(OC)c1OC , what pIC50 is on record?
A. > 4.30

Q. For the molecule CN(C)c1ccc(Nc2ncc(Br)c(Nc3ccccc3NS(N)(=O)=O)n2)cc1 , what pIC50 is on record?
A. > 6.00

----------
# TGT: ZAP-70 (Homo sapiens, UniProt P43403)
# Construct: endogenous in cells
# ASSAY_INFO: ZAP-70 kinobeads assay
# RUN_CONDITIONS: cell lysate, dot blot detection
Below, each entry is listed with its recorded IC50.

COc1cc(Nc2ncc(F)c(Nc3ccc(C)cc3NS(N)(=O)=O)n2)cc(OC)c1OC [Example 34]; < 1 µM
CNS(=O)(=O)Nc1cccc(Nc2nc(Nc3cc(OC)c(OC)c(OC)c3)ncc2F)c1 [Example 9]; < 50 µM
CN(C)c1ccc(Nc2ncc(F)c(Nc3ccccc3NS(N)(=O)=O)n2)cc1 [Example 29]; < 1 µM
COc1ccc(NS(N)(=O)=O)c(Nc2nc(Nc3cc(OC)c(OC)c(OC)c3)ncc2F)c1 [Example 36]; < 50 µM
COc1cc(Nc2ncc(F)c(Nc3cccc(NS(=O)(=O)NC(C)C)c3)n2)cc(OC)c1OC [Example 6]; < 50 µM
COc1cc(Nc2nccc(Nc3ccccc3NS(N)(=O)=O)n2)cc(OC)c1OC [Example 23]; < 1 µM
COc1ccc(Nc2ncc(F)c(Nc3ccccc3NS(N)(=O)=O)n2)cc1 [Example 28]; < 50 µM
CCNS(=O)(=O)Nc1cccc(Nc2nc(Nc3cc(OC)c(OC)c(OC)c3)ncc2F)c1 [Example 7]; < 50 µM

Q. For the molecule COc1cc(Nc2ncc(F)c(Nc3cccc(NS(=O)(=O)N(C)C)c3)n2)cc(OC)c1OC [Example 2] , what IC50 is on record?
A. < 50 µM

Q. For the molecule COc1cc(Nc2ncc(F)c(Nc3ccc(C)c(C)c3NS(N)(=O)=O)n2)cc(OC)c1OC [Example 31] , what IC50 is on record?
A. < 1 µM

Q. For the molecule COc1cc(Nc2ncc(F)c(Nc3ccccc3NS(=O)(=O)N(C)C)n2)cc(OC)c1OC [Example 11] , what IC50 is on record?
A. < 1 µM

Q. For the molecule COc1cc(Nc2ncc(F)c(Nc3cccc(C)c3NS(N)(=O)=O)n2)cc(OC)c1OC [Example 30] , what IC50 is on record?
A. < 0.1 µM

Q. For the molecule COc1cc(Nc2ncc(F)c(Nc3ccccc3NS(=O)(=O)NCc3ccccc3)n2)cc(OC)c1OC [Example 14] , what IC50 is on record?
A. < 50 µM

Q. For the molecule COc1cccc(Nc2nc(Nc3cc(OC)c(OC)c(OC)c3)ncc2F)c1NS(N)(=O)=O [Example 32] , what IC50 is on record?
A. < 0.1 µM

Q. For the molecule COc1cc(Nc2ncc(F)c(Nc3cccc(NS(=O)(=O)NCC4CC4)c3)n2)cc(OC)c1OC [Example 3] , what IC50 is on record?
A. < 50 µM

Q. For the molecule COc1cc(Nc2ncc(F)c(Nc3ccccc3NS(=O)(=O)NC(C)C)n2)cc(OC)c1OC [Example 13] , what IC50 is on record?
A. < 50 µM

Q. For the molecule COCCNS(=O)(=O)Nc1cccc(Nc2nc(Nc3cc(OC)c(OC)c(OC)c3)ncc2F)c1 [Example 8] , what IC50 is on record?
A. < 50 µM
